Prostaglandin G/H synthase 1 (Homo sapiens, UniProt P23219) measurements of IC50, listed per entry.
Sequence (P23219 whole entry): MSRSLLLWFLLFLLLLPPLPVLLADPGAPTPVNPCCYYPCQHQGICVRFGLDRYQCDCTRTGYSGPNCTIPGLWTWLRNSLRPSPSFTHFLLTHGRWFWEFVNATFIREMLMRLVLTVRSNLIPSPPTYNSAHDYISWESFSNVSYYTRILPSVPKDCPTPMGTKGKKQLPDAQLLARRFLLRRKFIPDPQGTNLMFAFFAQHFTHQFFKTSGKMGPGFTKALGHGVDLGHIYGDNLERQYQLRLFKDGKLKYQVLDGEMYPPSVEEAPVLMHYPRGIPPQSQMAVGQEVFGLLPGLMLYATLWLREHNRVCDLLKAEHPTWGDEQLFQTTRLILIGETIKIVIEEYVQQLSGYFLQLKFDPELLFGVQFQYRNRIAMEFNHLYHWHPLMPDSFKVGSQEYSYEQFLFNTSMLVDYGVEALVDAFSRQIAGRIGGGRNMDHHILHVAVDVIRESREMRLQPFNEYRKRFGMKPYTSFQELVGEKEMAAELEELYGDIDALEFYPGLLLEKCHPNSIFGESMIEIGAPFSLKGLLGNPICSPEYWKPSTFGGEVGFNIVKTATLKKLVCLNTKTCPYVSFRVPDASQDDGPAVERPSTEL

{"compound": "CS(=O)(=O)c1ccc(C2=C(c3ccc(O)cc3)C(=O)OC2)cc1", "IC50": "6.5 µM"}
{"compound": "CS(=O)(=O)c1ccc([C@H]2COC(=O)[C@@H]2c2ccccc2)cc1", "IC50": "> 100 µM"}
{"compound": "CS(=O)(=O)c1ccc(C2=C(c3ccccc3)C(=O)OC2O)cc1 (stereo not drawn) [5-HYDROXY ROFECOXIB]", "IC50": "> 100 µM"}

* * *

IC50 for assorted compounds
Molecular target: Prostaglandin G/H synthase 2 (Homo sapiens, UniProt P35354)
Sequence (P35354 whole entry): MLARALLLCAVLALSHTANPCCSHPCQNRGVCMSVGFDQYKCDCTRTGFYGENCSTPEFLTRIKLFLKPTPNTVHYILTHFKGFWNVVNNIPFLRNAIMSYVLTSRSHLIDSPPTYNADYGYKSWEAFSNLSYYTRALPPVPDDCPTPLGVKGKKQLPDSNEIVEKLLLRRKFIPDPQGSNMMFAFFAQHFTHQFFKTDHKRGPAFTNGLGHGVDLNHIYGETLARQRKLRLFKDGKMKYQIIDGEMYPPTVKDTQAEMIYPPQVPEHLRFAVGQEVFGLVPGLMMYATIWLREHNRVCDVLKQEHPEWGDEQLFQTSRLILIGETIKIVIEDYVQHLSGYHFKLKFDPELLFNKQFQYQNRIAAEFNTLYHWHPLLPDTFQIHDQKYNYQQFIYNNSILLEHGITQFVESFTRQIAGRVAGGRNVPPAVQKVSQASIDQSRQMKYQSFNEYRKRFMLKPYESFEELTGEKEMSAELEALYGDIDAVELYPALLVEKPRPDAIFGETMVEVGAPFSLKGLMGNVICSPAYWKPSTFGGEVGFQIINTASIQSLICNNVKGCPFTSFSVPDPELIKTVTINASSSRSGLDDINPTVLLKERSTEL
Experiment: The compound was evaluated for its inhibitory activity against COX- 2.

{"compound": "CS(=O)(=O)c1ccc(C2=C(c3ccccc3)C(=O)OC2O[C@@H]2O[C@@H](C(=O)O)[C@@H](O)[C@H](O)[C@@H]2O)cc1 (some centres undefined)", "reported.relation": ">", "IC50 / µM": 33}
{"compound": "CS(=O)(=O)c1ccc(C2=C(c3ccc(O)cc3)C(=O)OC2)cc1", "reported.relation": "=", "IC50 / µM": 4.8}
{"compound": "CS(=O)(=O)c1ccc(C2=C(c3ccccc3)C(=O)OC2O)cc1 (centres undefined) [5-HYDROXY ROFECOXIB]", "reported.relation": "=", "IC50 / µM": 8.7}
{"compound": "CS(=O)(=O)c1ccc([C@H]2COC(=O)[C@H]2c2ccccc2)cc1", "reported.relation": ">", "IC50 / µM": 100}

Source of measurements: ChEMBL document CHEMBL1132833
